Origin of measurements: ChEMBL document CHEMBL4011633

- target_under_test: Acetylcholinesterase (Homo sapiens)
- Sequence (P22303 whole entry): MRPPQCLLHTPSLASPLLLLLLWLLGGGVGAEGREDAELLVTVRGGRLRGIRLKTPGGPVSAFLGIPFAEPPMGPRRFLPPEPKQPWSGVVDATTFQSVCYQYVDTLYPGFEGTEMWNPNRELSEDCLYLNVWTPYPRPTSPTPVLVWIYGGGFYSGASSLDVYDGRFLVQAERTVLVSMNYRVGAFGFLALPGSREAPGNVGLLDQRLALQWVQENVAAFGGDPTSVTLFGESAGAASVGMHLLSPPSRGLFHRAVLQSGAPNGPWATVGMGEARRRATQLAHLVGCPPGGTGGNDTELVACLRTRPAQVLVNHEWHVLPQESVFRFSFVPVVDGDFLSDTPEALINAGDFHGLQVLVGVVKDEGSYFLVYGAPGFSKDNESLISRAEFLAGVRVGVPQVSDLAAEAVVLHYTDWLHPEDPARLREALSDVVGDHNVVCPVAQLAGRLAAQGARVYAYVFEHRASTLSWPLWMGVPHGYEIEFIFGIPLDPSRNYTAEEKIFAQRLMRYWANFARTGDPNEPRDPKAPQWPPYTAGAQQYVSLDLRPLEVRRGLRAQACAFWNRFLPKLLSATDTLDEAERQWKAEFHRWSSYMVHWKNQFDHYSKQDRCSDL
- experiment_notes: Inhibition of AChE in human erythrocytes using acetylthiocholine iodide as substrate preincubated for 5 mins followed by substrate addition measured every minute for 10 mins by Ellman's spectrophotometric method
- Format: cell-based
quantity_name: IC50 (nM)
Reply with just the number (in nM).

Noted for CC(=O)c1c[n+](Cc2ccccc2C)ccc1CC1Cc2cc(C)c(C)cc2C1=O (racemic) : its IC50 reads 27.7

Noted for COc1cc2c(cc1OC)C(=O)C(Cc1cc[n+](Cc3ccccc3C)cc1C(N)=O)C2 (racemic) : its IC50 reads 678

Noted for COc1cc2c(cc1OC)C(=O)C(Cc1cc[n+](Cc3cccc(Cl)c3)cc1C(C)=O)C2 (racemic) : its IC50 reads 3.27

Noted for COC(=O)c1c[n+](Cc2ccccc2C)ccc1CC1Cc2cc(OC)c(OC)cc2C1=O (racemic) : its IC50 reads 5.8

Noted for COc1cc2c(cc1OC)C(=O)C(Cc1cc[n+](Cc3cccc(C)c3)cc1C(C)=O)C2 (racemic) : its IC50 reads 14

Noted for COc1cc2c(cc1OC)C(=O)C(Cc1cc[n+](Cc3ccccc3Cl)cc1C(C)=O)C2 (racemic) : its IC50 reads 18

Noted for COc1cc2c(cc1OC)C(=O)C(Cc1cc[n+](Cc3cccc(Cl)c3)cc1C(N)=O)C2.[Br-] (racemic) : its IC50 reads 41

Noted for COC(=O)c1c[n+](Cc2ccccc2)ccc1CC1Cc2cc(OC)c(OC)cc2C1=O (racemic) : its IC50 reads 25.6

Noted for CC(=O)c1c[n+](Cc2ccccc2C)ccc1CC1Cc2cc(C)ccc2C1=O (racemic) : its IC50 reads 91

Noted for COc1cc2c(cc1OC)C(=O)C(Cc1cc[n+](Cc3ccccc3)cc1C#N)C2 (racemic) : its IC50 reads 2.92

###

- experiment_notes: Effective permeability of compound at pH 7.4 at 100 uM after 4 hrs by PAMPA
- Type: physicochemical
- cond: read-out: Peff
quantity_name: Papp at 4 h, 100 µM (×10⁻⁶ cm/s)
Reply with just the number (in ×10⁻⁶ cm/s).

Noted for COc1cc2c(cc1OC)C(=O)C(Cc1cc[n+](Cc3cccc(Cl)c3)cc1C(N)=O)C2.[Br-] (racemic) : its Papp at 4 h, 100 µM reads 0.15

Noted for CC(=O)C1=CN(Cc2ccccc2C)C=CC1CC1Cc2cc3c(cc2C1=O)OCO3 (stereo not given) : its Papp at 4 h, 100 µM reads 14.3

Noted for COc1ccc2c(c1)CC(Cc1cc[n+](Cc3ccccc3C)cc1C(C)=O)C2=O.[Br-] (racemic) : its Papp at 4 h, 100 µM reads 0.3

Noted for COc1cc2c(cc1OC)C(=O)C(CC1C=CN(Cc3cccc(Cl)c3)C=C1C(N)=O)C2 (stereo not given) : its Papp at 4 h, 100 µM reads 25.6

Noted for COc1ccc2c(c1)CC(CC1C=CN(Cc3ccccc3C)C=C1C(C)=O)C2=O (stereo not given) : its Papp at 4 h, 100 µM reads 14.8

###

- experiment_notes: Selectivity index, ratio of IC50 for equine serum BChE to IC50 for AChE in human erythrocytes
- Format: cell-based
What Ratio IC50 was measured for each of the following?
Please state the value as a number alone, without comment.

Noted for CC(=O)c1c[n+](Cc2ccccc2C)ccc1CC1Cc2cc(C)c(C)cc2C1=O (racemic) : its Ratio IC50 reads 6.95

Noted for CC(=O)c1c[n+](Cc2ccccc2C)ccc1CC1Cc2cc3c(cc2C1=O)OCO3 (racemic) : its Ratio IC50 reads 26.9

Noted for COC(=O)c1c[n+](Cc2ccccc2C)ccc1CC1Cc2cc(OC)c(OC)cc2C1=O (racemic) : its Ratio IC50 reads 309

Noted for COc1cc2c(cc1OC)C(=O)C(Cc1cc[n+](Cc3ccccc3Cl)cc1C(C)=O)C2 (racemic) : its Ratio IC50 reads 106

Noted for CC(=O)c1c[n+](Cc2ccccc2C)ccc1CC1Cc2cc(Cl)ccc2C1=O (racemic) : its Ratio IC50 reads 13.9

Noted for COc1cc2c(cc1OC)C(=O)C(Cc1cc[n+](Cc3cccc(Cl)c3)cc1C(C)=O)C2 (racemic) : its Ratio IC50 reads 1020

Noted for COc1cc2c(cc1OC)C(=O)C(Cc1cc[n+](Cc3cccc(C)c3)cc1C(C)=O)C2 (racemic) : its Ratio IC50 reads 427

Noted for COC(=O)c1c[n+](Cc2ccccc2)ccc1CC1Cc2cc(OC)c(OC)cc2C1=O (racemic) : its Ratio IC50 reads 119

Noted for COc1ccc2c(c1)CC(Cc1cc[n+](Cc3ccccc3C)cc1C(C)=O)C2=O.[Br-] (racemic) : its Ratio IC50 reads 133

Noted for CC(=O)c1c[n+](Cc2ccccc2C)ccc1CC1Cc2cc(C)ccc2C1=O (racemic) : its Ratio IC50 reads 41.9
